Values compiled from PubChem BioAssay (NCATS).

I'd appreciate it if you could supply activity change, negative = inhibition values for the items below.
EXPERIMENT_SUMMARY: qHTS Assay for Lipid Storage Modulators (AID 1519); further: on the % scale 0 is the no-effect control and ±100 the full control effect
CONDITION_CONTEXT: Drosophila S3 cells, BODIPY lipid droplet/cell ratio, laser cytometry; at 25.7 µM (top of the series); cells loaded with oleic acid
Records with an inconclusive call do not appear.
Answers are plain numbers, in %.

Batch lookup, activity change, negative = inhibition per entry.
1. CCN[C@@H]1C[C@H](N)[C@H](O[C@H]2OC(CN)=CC[C@H]2N)[C@@H](O)[C@H]1O[C@H]1OC[C@@](C)(O)[C@@H](NC)[C@@H]1O
2. CC(=O)N(C[C@@H](O)CO)c1c(I)c(C(=O)NC[C@@H](O)CO)c(I)c(C(=O)NC[C@@H](O)CO)c1I
3. C[C@@H]1O[C@H](O[C@@H]2[C@@H](Oc3cc(O)c4c(c3)O[C@H](c3ccc(O)cc3)CC4=O)O[C@@H](CO)[C@@H](O)[C@H]2O)[C@@H](O)[C@H](O)[C@@H]1O
4. c1ccc(CNc2ncnc3nc[nH]c23)cc1
5. CC(=O)N(C[C@@H](C)C(=O)O)c1c(I)cc(I)c(N)c1I
6. C[C@H](CCC(=O)NCC(=O)O)[C@H]1CC[C@H]2[C@H]3[C@@H](C[C@@H](O)[C@]12C)[C@]1(C)CC[C@H](O)C[C@@H]1C[C@@H]3O

-1.78
-2.6
-1.64
-0.17
0.163
0.864

Query CN1CC[C@@]23c4ccccc4N[C@H]1[C@]21CCN(C)[C@@H]3Nc2ccccc21 yields activity change, negative = inhibition of -2.36

###

Tested on: CP297
EXPERIMENT_SUMMARY: qHTS profiling for inhibitors of Plasmodium falciparum proliferation (AID 504749); further: nearly all actives have a fitted effect of over 60% in size
CONDITION_CONTEXT: P. falciparum in erythrocytes, SYBR Green DNA, 72 h; series mostly up to 12.8 µM
Inconclusive results are not listed. The source made the active and inactive calls. Calls follow the shape of the dose curve; as a rule, active = well fitted inhibition curve with a large enough effect; inconclusive = small, poorly fitted or top-dose-only effect; inactive = flat fitted curve, though single readings scatter.
Your response should consist of one outcome taken from active, inactive

COc1cc(C2c3cc4c(cc3C(O[C@@H]3OC5COC(c6cccs6)OC5C(O)C3O)C3COC(=O)C23)OCO4)cc(OC)c1O (stereo not given in full): active

Record request — test call for NS(=O)(=O)c1cc2c(cc1Cl)N[C@@H](CC1CCCC1)NS2(=O)=O
inactive

Record request — test call for Clc1ccc([C@H](Cn2ccnc2)OCc2csc3c(Cl)cccc23)c(Cl)c1
active

Record request — test call for NC(=O)N[C@H]1NC(=O)NC1=O
inactive

Record request — test call for COc1ccc(CC(N)C(=O)NC2C(CO)OC(n3cnc4c(N(C)C)ncnc43)C2O)cc1 (stereo not given)
active

Record request — test call for CO[C@]1(NC(=O)C2SC(=C(C(N)=O)C(=O)O)S2)C(=O)N2C(C(=O)O)=C(CSc3nnnn3C)CS[C@H]21 (stereo not given in full)
inactive

Record request — test call for CC(=O)OCC(=O)[C@@]1(O)[C@H](C)C[C@@H]2[C@H]3CCC4=CC(=O)C=C[C@]4(C)[C@]3(F)[C@@H](O)C[C@@]21C
inactive

Record request — test call for C[C@]12C=CC(=O)C=C1CCC1C2C(O)C[C@]2(C)C1CC[C@]2(O)C(=O)CO (stereo not given in full)
inactive

Record request — test call for O=C1O[C@@H]([C@@H](O)CO)[C@@H](O)[C@H]1O
inactive

Record request — test call for O=C(O)[C@@H]1CCCN1
inactive

###

Tested on: P94_40
EXPERIMENT_SUMMARY: qHTS profiling for inhibitors of Plasmodium falciparum proliferation (AID 504749); further: nearly all actives have a fitted effect of over 60% in size
CONDITION_CONTEXT: P. falciparum in erythrocytes, SYBR Green DNA, 72 h; series mostly up to 12.8 µM
Results filed as inconclusive are left out. Active and inactive are the calls of the source. Calls come from the whole dose curve; as a rule, active = well fitted inhibition curve with a large enough effect; inconclusive = small, poorly fitted or top-dose-only effect; inactive = flat fitted curve, though single readings scatter.
Your response should consist of one outcome taken from active, inactive

CC(=O)OCC(=O)[C@@]1(O)[C@H](C)C[C@@H]2[C@H]3CCC4=CC(=O)C=C[C@]4(C)[C@]3(F)[C@@H](O)C[C@@]21C: inactive
NCC1CCC(N)C(O[C@@H]2C(O)[C@H](O[C@H]3OC(CO)C(O)C(N)C3O)[C@@H](N)C[C@H]2N)O1 (stereo partly specified): inactive
CC1(C)OC2CC(=O)OC[C@@]23C1CC(=O)[C@]1(C)C3CC[C@@]2(C)C(c3ccoc3)OC(=O)C3O[C@@]321 (stereo partly specified): inactive
CC1(C)O[C@H]2C[C@@H]3[C@H]4CCC5=CC(=O)CC[C@@]5(C)[C@]4(F)[C@@H](O)C[C@@]3(C)[C@@]2(C(=O)CCl)O1: active
Clc1ccc([C@H](Cn2ccnc2)OCc2c(Cl)cccc2Cl)c(Cl)c1: active
COc1ccc(OC)c([C@H](O)CNC(=O)CN)c1: inactive
CC[C@](C)(CN(C)C)OC(=O)c1ccccc1: inactive
C=CCN1C(=CCO)[C@H]2C[C@H]3[C@@H]1CC[C@@]31c3ccccc3N3C=C4[C@@H]5N(/C=C/2[C@H]31)c1ccccc1[C@]51CC[C@H]2[C@H]1C[C@@H]4/C(=C/CO)N2CC=C: inactive

Record request — test call for CC(C)(C)NC[C@H](O)COc1cccc2c1CCC(=O)N2
inactive

Record request — test call for NCc1ccccc1CC(=O)N[C@@H]1C(=O)N2C(C(=O)O)=C(CSc3nnnn3CC(=O)O)CS[C@@H]12
inactive

Record request — test call for CCC(C)C(=O)OC1CCC=C2C=CC(C)C(CCC3CC(O)CC(=O)O3)[C@@H]21 (stereo partly specified)
inactive

Record request — test call for CC(=O)O[C@H]1C[C@@]2(C)[C@H](C[C@@H](O)[C@H]3[C@@]4(C)CC[C@@H](O)[C@@H](C)[C@H]4CC[C@@]32C)C1=C(CCC=C(C)C)C(=O)O
inactive

Record request — test call for CC(=O)[C@@]1(O)CC[C@H]2[C@H]3C[C@@H](C)C4=CC(=O)C=C[C@]4(C)[C@@]3(F)[C@@H](O)C[C@]21C
inactive

###

EXPERIMENT_SUMMARY: Primary qHTS for inhibitors of nuclear receptor binding SET domain protein 2 (NSD2) in an RCH-ACV wild type WT cells (2C) (AID 1645877); further: nearly all actives have a fitted effect of over 70% in size
CONDITION_CONTEXT: RCH-ACV (leukaemia line) NSD2 WT (2C) viability, CellTiter-Glo, 72 h; series mostly up to 44.9 µM
Records with an inconclusive call do not appear. Activity calls are given as the source filed them. The call rests on the fitted dose curve; in most records, active means well fitted inhibition curve with a large enough effect; inconclusive means small, poorly fitted or top-dose-only effect; inactive means no such curve, though single readings can be large or run the other way.
Your response should consist of one outcome taken from active, inactive

Take a look at these entries with their results.
C=C1C(=O)OC2/C=C(/C)CC/C=C(/C)CCC12 (configuration not stated): active
CCNCCc1ccc(CN(CC)c2cc(OC)ccc2[C@@H]2CCc3cc(O)ccc3C2)cc1: active
CO[C@H]1/C=C/O[C@@]2(C)Oc3c(C)c(O)c4c(O)c(c(/C=N/N5CCN(C)CC5)c(O)c4c3C2=O)NC(=O)/C(C)=C\C=C\[C@H](C)[C@H](O)[C@@H](C)[C@@H](O)[C@@H](C)[C@H](OC(C)=O)[C@@H]1C: active
COC(=O)N[C@H](C(=O)N1CCC[C@H]1c1ncc(-c2ccc(-c3ccc(-c4cnc([C@@H]5CCCN5C(=O)[C@@H](NC(=O)OC)C(C)C)[nH]4)cc3)cc2)[nH]1)C(C)C: active
CNC(=O)CCc1cc(-c2ccc(-c3ccc(C(F)(F)F)cc3)cc2)n(-c2ccc(N3CCNCC3)cc2)n1: inactive
CCN1C(=O)N2Cc3cc(OC)cc(OC)c3[C@@H](C)C=C2C12CCN(Cc1cc(C)cc(C)c1)CC2: active

Record request — test call for C[C@@H](OC[C@@]1(c2ccccc2)CC[C@]2(CCC(=O)N2)CN1)c1cc(C(F)(F)F)cc(C(F)(F)F)c1
active

###

ASSAY_TARGET: Rap guanine nucleotide exchange factor 4 (Homo sapiens)
EXPERIMENT_SUMMARY: Confirmatory qHTS for antagonist of cAMP-regulated guanine nucleotide exchange factor 4 (EPAC2) (AID 1645885); further: nearly all actives have a fitted effect of over 25% in size
CONDITION_CONTEXT: EPAC2 Rap1B-BODIPY-GDP exchange fluorescence, biochemical; series mostly up to 12.7 µM
Records with an inconclusive call do not appear. Calls of active or inactive are those of the source. Calls follow the shape of the dose curve; as a rule, active = well fitted inhibition curve with a large enough effect; inconclusive = small, poorly fitted or top-dose-only effect; inactive = no such curve, though single readings can be large or run the other way.
Your response should consist of one outcome taken from active, inactive

Take a look at these entries with their results.
C=CCN(CC=C)Cc1cc(=O)oc2cc(OC)ccc12: inactive
Cc1ccccc1CN1C(=O)c2ccccc2Sc2ccc(C(=O)O)cc21: inactive
Cc1nc2cc(NC(=O)CCS(=O)(=O)c3ccccc3)ccc2s1: inactive
CCCCC(=O)N(c1ccc(C(=O)O)cc1)c1nc(-c2ccc(Cl)cc2)c(CC)s1: inactive
CCCCn1c(N)c(N(CC(C)C)C(=O)C2CCN(C(=O)c3ccc(Cl)cc3)CC2)c(=O)[nH]c1=O: inactive
O=C1S/C(=C\c2ccc(O)c([N+](=O)[O-])c2)C(=O)N1c1ccccc1Cl: active

Record request — test call for CCOC(=O)CSc1nc(C)c2cc(C)c(C)cc2n1
inactive

Record request — test call for Clc1ccc(-c2cc3ccccc3nc2N2CCOCC2)cc1
inactive

Record request — test call for Cc1ccc(S(=O)(=O)N2[C@@H](c3ccc(Cl)c(Cl)c3)C(C(=O)O)=C[C@H]2CC2CCCC2)cc1
inactive

Record request — test call for NNc1nc2c(Cl)ccc(Cl)c2s1
inactive

Record request — test call for CCc1ccc(/C=C2/SC(=S)N(CCCC(=O)Nc3ccccc3C(=O)O)C2=O)cc1
inactive
